# TEST DESCRIPTION: Selectivity index, ratio of CC50 for human MRC5 cells to EC50 for Leishmania infantum MHOM/MA(BE)/67/ITMAP263
# Format: toxicity
# COND: read-out: Ratio CC50/EC50
REPORTED PROPERTY: selectivity ratio

Please review the following examples before continuing.
{"MOLECULE SMILES": "Cc1cccc(-n2ncc(C(=O)Nc3ccc4c(c3)B(O)OC4)c2C)n1", "RESULT": 25}
{"MOLECULE SMILES": "Cc1nn(-c2ccccn2)cc1C(=O)Nc1ccc2c(c1)B(O)OC2", "RESULT": "> 11"}

# evaluate next
query: What does the record list as selectivity ratio for Cc1cccc(-n2nnc(C(=O)Nc3ccc4c(c3)B(O)OC4)c2C)n1 ?
result: > 10
